assay: Proton dissociation constants by UV-vis titration; assay type: physicochemical; details: pKa2 (UV-vis)

GIVEN SMILES | pKa
CC(C)C(=O)OC[C@H]1O[C@@H](n2ccc(NO)nc2=O)[C@H](O)[C@@H]1O | 10.3

* * *

assay: Proton dissociation constants by UV-vis titration; format: physicochemical; conditions: pKa1 (UV-vis)
List of pKa values.

GIVEN SMILES | pKa
NC(=O)c1nc(F)c[nH]c1=O | 5.08
CC(C)C(=O)OC[C@H]1O[C@@H](n2ccc(NO)nc2=O)[C@H](O)[C@@H]1O | 2.11

* * *

test: Proton dissociation constants by UV-vis titration; type: physicochemical; conditions: I = 0.1 M (KCl); 25 °C; read-out: pKa1 (UV-vis)

GIVEN SMILES | pKa
Cc1ccc(NC(=O)c2ccc(CN3CCN(C)CC3)cc2)cc1Nc1nccc(-c2cccnc2)n1 | 1.72
